src = ChEMBL document CHEMBL5291721

Target: Glutamate receptor ionotropic, NMDA 1 (Rattus norvegicus); also: assay procedure not described here
assay.metric: AC50

Exercise: Can you share its AC50? I mean this compound: O=C(O)/C=C/c1ccc(Cn2ccnc2)cc1
Key: > 30 µM

Exercise: Can you share its AC50? I mean this compound: COC(=O)[C@H]1[C@H]2C[C@@H]3c4[nH]c5cc(OC)ccc5c4CCN3C[C@H]2C[C@@H](OC(=O)/C=C/c2cc(OC)c(OC)c(OC)c2)[C@@H]1OC
Key: > 10 µM

Exercise: Can you share its AC50? I mean this compound: CN1CCN(CC/C=C2/c3ccccc3Sc3ccc(S(=O)(=O)N(C)C)cc32)CC1
Key: > 10 µM

Exercise: Can you share its AC50? I mean this compound: Cc1cc(O)c(C(=O)N[C@@H](C(=O)N[C@@H]2C(=O)N3C(C(=O)O)=C(CSc4nnnn4C)CS[C@H]23)c2ccc(O)cc2)cn1 [CEFPIRAMIDE]
Key: > 30 µM

Exercise: Can you share its AC50? I mean this compound: C[C@@H](O)[C@H]1C(=O)N2C(C(=O)O)=C(S[C@@H]3CN[C@H](C(=O)N(C)C)C3)[C@H](C)[C@H]12
Key: > 10 µM

Exercise: Can you share its AC50? I mean this compound: CCCN1C[C@H](CSC)C[C@@H]2c3cccc4[nH]cc(c34)C[C@H]21 [PERGOLIDE]
Key: > 10 µM

Exercise: Can you share its AC50? I mean this compound: CC[C@@H]1C(=O)OC[C@@H]1Cc1cncn1C
Key: > 10 µM

Exercise: Can you share its AC50? I mean this compound: O=C(NCCNCC(O)COc1ccc(O)cc1)N1CCOCC1 (stereo not given)
Key: > 30 µM

Exercise: Can you share its AC50? I mean this compound: C#C[C@]1(O)CC[C@H]2[C@@H]3CCC4=Cc5oncc5C[C@]4(C)[C@H]3CC[C@@]21C
Key: > 10 µM

Exercise: Can you share its AC50? I mean this compound: CN1C(=O)C(O)N=C(c2ccccc2)c2cc(Cl)ccc21 (stereo not given)
Key: > 10 µM

----------
Observed AC50 values for UniProt:P21731 are listed in what follows.
Sequence (P21731 whole entry): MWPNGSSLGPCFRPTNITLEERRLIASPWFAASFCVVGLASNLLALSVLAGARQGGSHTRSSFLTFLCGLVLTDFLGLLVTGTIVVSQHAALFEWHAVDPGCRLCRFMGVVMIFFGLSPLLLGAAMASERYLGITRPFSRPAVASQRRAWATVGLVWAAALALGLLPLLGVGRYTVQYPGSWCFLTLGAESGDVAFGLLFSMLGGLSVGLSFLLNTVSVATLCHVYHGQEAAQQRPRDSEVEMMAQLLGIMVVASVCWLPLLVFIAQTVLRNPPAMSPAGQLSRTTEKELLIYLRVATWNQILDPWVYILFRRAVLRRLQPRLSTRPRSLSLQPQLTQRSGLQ

Exercise: Can you share its AC50? I mean this compound: CC(=O)O[C@H]1C[C@@H]2CC[C@@H]3[C@H](CC[C@@]4(C)[C@H]3C[C@H]([N+]3(C)CCCCC3)[C@@H]4OC(C)=O)[C@@]2(C)C[C@@H]1N1CCCCC1 [VECURONIUM]
Key: > 30 µM

Exercise: Can you share its AC50? I mean this compound: Fc1ccc(C(c2ccccc2)(c2ccccc2F)n2ccnc2)cc1 (stereo not given) [FLUTRIMAZOLE]
Key: 30 µM

Exercise: Can you share its AC50? I mean this compound: CC[C@H]1CN2CCc3cc(OC)c(OC)cc3[C@@H]2C[C@@H]1C[C@H]1NCCc2cc(OC)c(OC)cc21 [EMETINE]
Key: > 30 µM

Exercise: Can you share its AC50? I mean this compound: Cc1c(OCC(F)(F)F)ccnc1C[S+]([O-])c1nc2ccccc2[nH]1 (stereo not given) [LANSOPRAZOLE]
Key: 3.46 µM

Exercise: Can you share its AC50? I mean this compound: N#Cc1ccc([C@H]2CCc3cncn32)c(F)c1 [OSILODROSTAT]
Key: > 10 µM

Exercise: Can you share its AC50? I mean this compound: C=CCN1C[C@H](C(=O)N(CCCN(C)C)C(=O)NCC)C[C@@H]2c3cccc4[nH]cc(c34)C[C@H]21 [CABERGOLINE]
Key: > 10 µM

Exercise: Can you share its AC50? I mean this compound: CC(C(=O)O)c1ccc(N2Cc3ccccc3C2=O)cc1 (stereo not given) [INDOPROFEN]
Key: > 30 µM

Exercise: Can you share its AC50? I mean this compound: Nc1ccn([C@H]2CC[C@@H](CO)O2)c(=O)n1 [ZALCITABINE]
Key: > 10 µM

Exercise: Can you share its AC50? I mean this compound: O=C(O)C[C@H](O)C[C@H](O)/C=C/c1c(C2CC2)nc2ccccc2c1-c1ccc(F)cc1 [PITAVASTATIN]
Key: > 10 µM

Exercise: Can you share its AC50? I mean this compound: CC[C@H]1OC(=O)[C@H](C)[C@@H](O[C@H]2C[C@@](C)(OC)[C@@H](O)[C@H](C)O2)[C@H](C)[C@@H](O[C@@H]2O[C@H](C)C[C@H](N(C)C)[C@H]2O)[C@](C)(O)C[C@@H](C)CN(C)[C@H](C)[C@@H](O)[C@]1(C)O [AZITHROMYCIN]
Key: > 30 µM
